Data provenance is PubChem BioAssay AID179.

- System: CEM cells HIV-1 protection, formazan growth assay
- Experiment Summary: NCI AIDS Antiviral Assay
- Reported Conditions: measured here: growth of uninfected CEM cells
Experimental Readout: pIC50
Conceptually, pIC50 converts a concentration in mol/L into minus its log10.

Task: Recorded pIC50 for `O=C(O)c1cc(C(=CCC23CC4CC(CC(C4)C2)C3)c2cc(Cl)c(O)c(C(=O)O)c2)cc(Cl)c1O` with CEM cells HIV-1 protection, formazan growth assay, please?
Result: 3.98

Task: Now this one: `COc1ccc2[nH]c3c(C)cc([N+](=O)[O-])c(C)c3c2c1`
Result: 4.97

Task: Try `N#C/C(=C/c1ccccc1)c1ccccc1` next.
Result: 4.40

Task: // next record CCN1C(=O)c2cc(OC)c(OC)cc2C(=O)C12OC(=O)c1cc3c(cc12)OCO3 (centres undefined)
Result: 4.03

Task: Try this compound too: CC(C)(C)[Si](C)(C)OCC1OC(n2cc(I)c(=O)[nH]c2=O)C(O[Si](C)(C)C(C)(C)C)C1O[Si](C)(C)C(C)(C)C (centres undefined)
Result: 4.76

Task: Consider next the compound `Cc1cc(C)nc(NS(=O)(=O)c2ccc(NC(=O)c3ccc4nc5ccccc5c(Nc5ccc(S(=O)(=O)Nc6nc(C)cc(C)n6)cc5)c4c3)cc2)n1` in the same way.
Result: 4.53

Task: Continue with `CN(c1ccc(Cl)cc1)S(=O)(=O)c1ccccc1`
Result: 4.30

Task: # repeat for `Cn1c(/C=N/NC(=O)c2ccc(C(=O)N/N=C/c3c[n+]4ccccc4n3C)cc2)c[n+]2ccccc12`
Result: 4.36

Task: Same for COc1cc2cc(C(=O)N3CC(CCl)c4c3cc(N)c3ccccc43)[nH]c2c(OC)c1OC (centres undefined)
Result: 9.08

* * *

- System: CEM cells HIV-1 protection, formazan growth assay
- Experiment Summary: NCI AIDS Antiviral Assay
- Reported Conditions: measured here: growth of uninfected CEM cells
- Description: The ability of compounds to protect human CEM cells from HIV-1 infection is measured as a screen for new compounds capable of inhibiting the HIV virus. Five concentrations of drug were tested on uninfected and infected cells and cell growth was measured using a soluble formazan assay. […] Compounds that provided at least 50% protection were retested. Compounds that provided at least 50% protection on retest were listed as moderately active. […]
Experimental Readout: pIC50
Scale explanation: pIC50 corresponds to minus log10 of a concentration expressed in moles per litre.

Task: # input molecule: `O=[N+]([O-])c1ccccc1Sc1ccc(Cl)cc1` ; wanted: its pIC50
Result: 4.41

Task: How about O=C1CCC23CC(C=CC=C12)n1c(=O)n(-c2ccccc2)c(=O)n13 (stereo not drawn) ?
Result: 4.46

Task: Now this one: `COc1c(C)c(-c2c(C)c(OC)c3c(c2OC)OCO3)c(OC)c2c1OCO2`
Result: 3.77

Task: Can you check Cc1cn(C2CC(O)C(CO[Si](C)(C)C(C)(C)C)OC2OC(C)C)c(=O)[nH]c1=O (stereo not drawn) next?
Result: 4.43

Task: Next molecule up: `Cn1cnc2[nH]c(=O)n(O)c(=O)c21`
Result: 4.45

Task: Quick one: `COc1ccc(/C(C#N)=C/c2ccccc2)cc1`
Result: 4.97

Task: Now consider `C/C(=N/NC(=S)Nc1cccc(Cl)c1)c1ccccn1` .
Result: 7.07

Task: Try this molecule next: COC(=O)C12Oc3ccc(-c4ccc5c(c4O)C(=O)C4=CCC(C)C(O)C4(C(=O)OC)O5)c(O)c3C(=O)C1=CCC(C)C2O (stereo not drawn)
Result: 5.75

Task: `Cc1nnc(Sc2nc(C#N)c(C#N)nc2Sc2nnc(C)s2)s1` ?
Result: 5.09

Task: How about this molecule: `Cc1cccc(NS(=O)(=O)c2ccc3c(c2)OCCOCCOCCOCCO3)c1`
Result: 3.80

Task: What do you have for `Cc1ccc(Cc2n[nH]c(=O)n2/N=C\CC/C=N\n2c(Cc3ccc(C)cc3)n[nH]c2=O)cc1` ?
Result: 3.92

Task: Would you kindly repeat that for `O=C(O)/C=C\C(=O)c1ccc(Cl)cc1` ?
Result: 4.23

Task: And then `CCOC(=O)OC(=S)N(C1CCCCC1)C1CCCCC1` , what is it?
Result: 4.01

Task: Request: COC1=C(C)C(=O)C2=C(C1=O)C1C3CC4=C(C(=O)C(OC)=C(C)C4=O)C(CNC(=O)C(C)=O)N3C(C#N)C(C2)N1C (stereo not drawn)
Result: 7.61

Task: Please do the same for CCC(=O)OC1CCC2C3CCC(=O)OC3C(C)(CCC(=O)O)CC12C (stereo not drawn) as well.
Result: 5.72

Task: Also `O=C1/C(=C/c2ccccc2)CN(C(=O)/C=C/c2ccccc2)C/C1=C\c1ccccc1` ?
Result: 4.84

Task: Next record, please: `O=C1c2ccccc2C(=O)c2sc(Nc3cccc(Cl)c3)nc21`
Result: 5.47

Task: Entry `COc1ccc(/C=C(\C(=C/c2ccc(OC)cc2)[N+](=O)[O-])[N+](=O)[O-])cc1` please
Result: 5.34

Task: `CCCC=NCCOC(=S)[S-].CCCC=NCCOC(=S)[S-].[Zn+2]` ?
Result: 4.25

Task: Can you handle `CN(C)Cc1cc(N=Nc2ccccc2)cc(CN(C)C)c1O` next?
Result: 3.99

Task: Similarly, `COc1cc(Nc2nc3ccccc3nc2C(=O)O)cc(OC)c1OC` ?
Result: 5.05

Task: What do you get for CC(C)=CCNc1ncnc2c1ncn2C1OC(CO)C(O)C1O (stereo not drawn) ?
Result: 4.81

Task: And the next one, `CSc1c(C#N)c(S)n(-c2ccc(Cl)cc2)c(=O)c1C#N` ?
Result: 4.28

Task: Also, `O=c1nc2sc3ccccc3c(=O)n2[nH]1` please.
Result: 4.11

Task: What would you report for `CC[C@@]1(OC(=O)CN(C)C)C(=O)OCc2c1cc1n(c2=O)Cc2cc3ccccc3nc2-1` ?
Result: 7.64
